Test: in vivo
Conditions: athymic nude Foxn1^nu, mouse, 0.15 MBq, total radioactivity, Uptake Pancreas
*1 amine or outer side, *2 acyl side, *3 side chain or, on linkers, in order; H or OH if unused. Where a SMILES comes first, the peptide text is derived from it. Bridges are numbered along the chain shown (N, C = ends). [ ]: non-standard residue; d: D form. The star is where a group is joined. NODAGA = O=C(O)CN1CCN(CC(=O)O)CCN(C(CCC(=O)*)C(=O)O)CC1; X1 = NC(=O)Nc1ccc(CC(N[*:1])C(=O)[*:2])cc1; Phe(4-Cl) = N[CH](Cc1ccc(Cl)cc1)C(=O)O
READOUT_TYPE: tissue uptake at 4 h (%ID/g)
Please give a number only; it is taken to be in %ID/g.

Any idea what tissue uptake at 4 h was measured for CC(O)C1NC(=O)C(CCCCN)NC(=O)C(Cc2ccc(NC(N)=O)cc2)NC(=O)C(Cc2ccc(O)cc2)NC(=O)C(NC(=O)C(Cc2ccc(Cl)cc2)NC(=O)CCC(C(=O)O)N2CCN(CC(=O)O)CCN(CC(=O)O)CC2)CSSCC(C(=O)NC(Cc2ccc(O)cc2)C(N)=O)NC1=O (stereo not shown) [[^61Cu]Cu-NODAGA-LM3, metal not drawn] ({NODAGA}-[Phe(4-Cl)]CY[X1]KTCY-NH2; disulfide 2-7; configuration not given here) ?
0.55
